Numbered stars: 1 amine (or outer) side, 2 acyl side, 3 side chain; on linkers, the order of the positions; unused ones are H or OH. Bridge positions count the residues as written; N and C are the ends. Square brackets hold non-standard residues; d marks the D form. Peptide text beside a SMILES is read from it. * marks the point of attachment. mXylylene = c1cc(C[*:1])cc(C[*:2])c1; Hexanoyl = CCCCCC(=O)*; Sar = CNCC(=O)O
FAP-expressing human WI-38 fibroblasts (Homo sapiens, UniProt Q12884) data, read-out IC50

[
  {
    "compound": "CCCCCC(=O)N[C@H]1CSCc2cccc(c2)CSC[C@@H](C(N)=O)NC(=O)[C@H](Cc2ccccc2)NC(=O)[C@H](CCC(=O)O)NC(=O)[C@H]([C@@H](C)O)NC(=O)[C@@H]2CCCN2C(=O)CN(C)C1=O [3BP-3347] (Hexanoyl-C[Sar]PTEFC-NH2; linker 1-7 via mXylylene)",
    "IC50": "100 to 794 nM"
  },
  {
    "compound": "CCCCCC(=O)N[C@H]1CSCc2cccc(c2)CSC[C@@H](C(N)=O)NC(=O)[C@H](Cc2ccccc2C(F)(F)F)NC(=O)[C@H](CCC(N)=O)NC(=O)[C@H]([C@@H](C)O)NC(=O)[C@@H]2CCCN2C(=O)[C@@H]2CCCN2C1=O [3BP-3409]",
    "IC50": "10 to 79.4 nM"
  }
]

Now examine the next entry.
Quick one: IC50 for C=CCOC(=O)N[C@H]1CSCc2cc(CSCCNC(=O)CN3CCN(CC(=O)O)CCN(CC(=O)O)CCN(CC(=O)O)CC3)cc(c2)CSC[C@@H](C(=O)O)NC(=O)[C@H](Cc2ccccc2)NC(=O)[C@H](CCC(N)=O)NC(=O)[C@H]([C@@H](C)O)NC(=O)[C@@H]2CCCN2C(=O)[C@@H]2CCCN2C1=O [3BP-3915] ?
10 to 79.4 nM

* * *

The entries below are paired with their reported pIC50.
target: Human recombinant FAP (Homo sapiens); test: FRET-based FAP protease activity assay; format: biochemical; design: purchased R&D systems 3715-SE; conditions: pIC50 Category (Activity), FRET-based FAP protease activity assay, recombinant human FAP, 37° C.
Sequence (Q12884 whole entry): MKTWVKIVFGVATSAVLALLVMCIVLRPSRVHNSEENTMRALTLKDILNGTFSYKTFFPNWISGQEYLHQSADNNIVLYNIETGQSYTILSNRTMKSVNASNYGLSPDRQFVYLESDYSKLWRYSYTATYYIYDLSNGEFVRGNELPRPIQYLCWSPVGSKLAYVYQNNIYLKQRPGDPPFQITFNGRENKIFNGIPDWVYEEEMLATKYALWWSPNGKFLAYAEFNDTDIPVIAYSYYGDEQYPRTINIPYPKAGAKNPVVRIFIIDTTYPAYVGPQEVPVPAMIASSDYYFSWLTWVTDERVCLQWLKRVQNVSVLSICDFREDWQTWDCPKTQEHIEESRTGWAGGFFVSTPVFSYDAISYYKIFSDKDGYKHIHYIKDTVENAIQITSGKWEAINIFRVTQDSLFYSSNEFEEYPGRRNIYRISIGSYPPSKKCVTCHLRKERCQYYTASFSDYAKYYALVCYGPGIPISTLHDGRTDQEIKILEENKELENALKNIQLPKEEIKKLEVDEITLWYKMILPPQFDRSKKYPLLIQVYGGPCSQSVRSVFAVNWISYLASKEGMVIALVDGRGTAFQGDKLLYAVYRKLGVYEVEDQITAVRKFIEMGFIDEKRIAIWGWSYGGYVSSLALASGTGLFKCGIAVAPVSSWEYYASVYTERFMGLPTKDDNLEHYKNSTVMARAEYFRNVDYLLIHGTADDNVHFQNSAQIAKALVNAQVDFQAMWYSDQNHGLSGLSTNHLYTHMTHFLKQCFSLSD
pIC50: −log10 of the molar value. Numbered stars: 1 amine (or outer) side, 2 acyl side, 3 side chain; on linkers, the order of the positions; unused ones are H or OH. Bridge positions count the residues as written; N and C are the ends. Square brackets hold non-standard residues; d marks the D form. Peptide text beside a SMILES is read from it. * marks the point of attachment. DOTA = O=C(O)CN1CCN(CC(=O)O)CCN(CC(=O)*)CCN(CC(=O)O)CC1; mXylylene = c1cc(C[*:1])cc(C[*:2])c1; NMeF = CN[C@@H](Cc1ccccc1)C(=O)O; βAla = NCCC(=O)O

Consider the reported pIC50 for these compounds:
[
  {
    "compound": "CSCC[C@H](NC(C)=O)C(=O)N[C@H]1CSCc2cccc(c2)CSC[C@@H](C(=O)N[C@@H](CC(=O)O)C(=O)N[C@@H](Cc2c[nH]cn2)C(=O)N(C)[C@@H](Cc2ccccc2)C(=O)N[C@@H](CCCNC(=N)N)C(=O)N[C@@H](CC(=O)O)C(N)=O)NC(=O)[C@H](Cc2ccccc2)NC(=O)[C@H](CCC(=O)O)NC(=O)[C@H]([C@@H](C)O)NC(=O)[C@@H]2CCCN2C(=O)[C@@H]2CCCN2C1=O [3BP-3188] (Ac-MCPPTEFCDH[NMeF]RD-NH2; linker 2-8 via mXylylene)",
    "result": "> 8.00"
  },
  {
    "compound": "C[C@@H](O)[C@@H]1NC(=O)[C@@H]2CCCN2C(=O)[C@@H]2CCCN2C(=O)[C@@H](NC(=O)CCNC(=O)CN2CCN(CC(=O)O)CCN(CC(=O)O)CCN(CC(=O)O)CC2)CSCc2cccc(c2)CSC[C@@H](C(=O)N[C@@H](CC(=O)O)C(=O)N[C@@H](Cc2c[nH]cn2)C(=O)N(C)[C@@H](Cc2ccccc2)C(=O)N[C@@H](CCCNC(=N)N)C(=O)N[C@@H](CC(=O)O)C(N)=O)NC(=O)[C@H](Cc2ccccc2)NC(=O)[C@H](CCC(=O)O)NC1=O [3BP-3264] ({DOTA-βAla}-CPPTEFCDH[NMeF]RD-NH2; linker 1-7 via mXylylene)",
    "result": "7.10 to 8.00"
  }
]

# input for lookup
# lookup: pIC50 of C[C@@H](O)[C@@H]1NC(=O)[C@@H]2CCCN2C(=O)[C@@H]2CCCN2C(=O)[C@@H](NC(=O)CCCCN)CSCc2cccc(c2)CSC[C@@H](C(N)=O)NC(=O)[C@H](Cc2ccccc2)NC(=O)[C@H](CCC(N)=O)NC1=O [3BP-3760]
< 6.00
